- EXPERIMENTAL_SYSTEM: DRB1*0406 complex (Homo sapiens, UniProt P01903+P01911, A100R/A103E/A169T/F76Y/I96L/K127E/L162R/M171V/N62H/P40V/Q125Y/R42H/S133A/S149N/V209L/W38E)
- Assay type: binding
Where no end group is shown, it is not given here.
PROPERTY: IC50 (µM)

[[record]]
residues = "AAYAALANAA"
property = "IC50"
value = 5

[[record]]
residues = "AALAAIASAA"
property = "IC50"
value = 8.8

[[record]]
residues = "AAFAAMASAA"
property = "IC50"
value = 1.1

[[record]]
residues = "KAAYAAVAVAA"
property = "IC50"
value = 12.2

